Target desc: cynomolgus monkey IgG (cynoIgG)
Assay procedure: direct ELISA, cynoIgG coated (hIgG1/CynoIgG screen), B-cell culture medium
Measured quantity: OD450 (OD450)
Give the quantity in OD450, number only.

Some solved cases for reference:
| Binder | OD450 (OD450) |
| --- | --- |
| rabbit anti-human IgG monoclonal antibody clone 16F5 (antibody, V domains shown) VH: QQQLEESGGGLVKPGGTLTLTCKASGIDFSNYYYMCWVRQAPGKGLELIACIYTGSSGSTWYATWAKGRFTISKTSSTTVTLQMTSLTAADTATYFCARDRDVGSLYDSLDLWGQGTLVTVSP VL: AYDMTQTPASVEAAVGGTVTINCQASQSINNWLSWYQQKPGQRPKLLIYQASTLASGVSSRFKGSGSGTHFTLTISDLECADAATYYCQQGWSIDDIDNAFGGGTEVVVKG | 0.184 |
| rabbit anti-human IgG monoclonal antibody clone 11G5 (antibody, V domains shown) VH: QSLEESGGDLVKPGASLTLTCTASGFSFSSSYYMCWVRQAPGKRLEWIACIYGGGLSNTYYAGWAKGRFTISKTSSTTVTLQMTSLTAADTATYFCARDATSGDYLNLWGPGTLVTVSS VL: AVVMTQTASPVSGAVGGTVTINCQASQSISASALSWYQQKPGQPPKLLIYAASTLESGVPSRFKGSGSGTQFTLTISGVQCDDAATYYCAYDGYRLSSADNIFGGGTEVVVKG | 0.161 |

Record rabbit anti-human IgG monoclonal antibody clone 9E6 (antibody, V domains shown) VH: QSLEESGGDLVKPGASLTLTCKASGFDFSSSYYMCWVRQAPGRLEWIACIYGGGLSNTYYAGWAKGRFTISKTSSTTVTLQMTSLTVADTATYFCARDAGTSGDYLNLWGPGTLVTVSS VL: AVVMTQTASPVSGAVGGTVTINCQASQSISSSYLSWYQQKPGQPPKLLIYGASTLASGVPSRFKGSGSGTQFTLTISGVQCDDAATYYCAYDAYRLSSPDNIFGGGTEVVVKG , field OD450: 0.14
